Here the recorded TGI is given for each entry.
# Tested on: SW-620 colon
# experiment-description: NCI tumour cell line growth inhibition, 48 h

compound	TGI
O=c1c2nn3c(=O)n(-c4ccccc4)c(=O)c3nn2c(=O)n1-c1ccccc1	> 100 µM
CCS(=O)(=O)Nc1ccc(Nc2c3ccccc3nc3ccccc23)c(OC)c1	7.13 µM
COc1cccc(-n2ncc3c(N/N=C/c4ccc(C(=O)NCCN(C)C)cc4)ncnc32)c1	9.06 µM

Prompt line: Please look at this compound and report its TGI: Nc1ncnc2ccc(Sc3ccc4ncnc(N)c4c3)cc12
Response line: > 100 µM

Prompt line: Tell me TGI reported for N=C(N)c1ccc(-c2ccc(-c3cc(Cl)cc(Cl)c3)o2)nc1
Response line: 3.41 µM

Prompt line: Using the record for COc1ccc(OC)c(/C=C2\SC(=S)NC2=O)c1 , state its measured TGI.
Response line: > 100 µM

Prompt line: Give a short answer stating reported TGI for CC[C@H]1C=CCC[C@@]2(C[C@@H]3CC[C@@H]4[C@H](C(=O)OCCCCCCCCCCCCCCCC(=O)O)[C@]5(CCC[C@@H](C)O5)NC(=[N+]34)N2)O1 .
Response line: 6.37 µM

Prompt line: Give me measured TGI, please, for this compound: COc1cc2c(c(OC)c1)C1c3ccccc3NC(=O)N1CC2 (stereo unspecified)
Response line: > 100 µM

Prompt line: For the compound Cn1cnc(CCc2ccccc2)n1 , report TGI.
Response line: > 100 µM

Prompt line: Output TGI of CCOC(=O)COc1ccccc1/C=C1\CCC(CN(C)C)C1=O (stereo unspecified)
Response line: 6.64 µM
